TARGET_DESC: Liver carboxylesterase 1 (Homo sapiens, UniProt P23141)
Sequence (P23141 whole entry): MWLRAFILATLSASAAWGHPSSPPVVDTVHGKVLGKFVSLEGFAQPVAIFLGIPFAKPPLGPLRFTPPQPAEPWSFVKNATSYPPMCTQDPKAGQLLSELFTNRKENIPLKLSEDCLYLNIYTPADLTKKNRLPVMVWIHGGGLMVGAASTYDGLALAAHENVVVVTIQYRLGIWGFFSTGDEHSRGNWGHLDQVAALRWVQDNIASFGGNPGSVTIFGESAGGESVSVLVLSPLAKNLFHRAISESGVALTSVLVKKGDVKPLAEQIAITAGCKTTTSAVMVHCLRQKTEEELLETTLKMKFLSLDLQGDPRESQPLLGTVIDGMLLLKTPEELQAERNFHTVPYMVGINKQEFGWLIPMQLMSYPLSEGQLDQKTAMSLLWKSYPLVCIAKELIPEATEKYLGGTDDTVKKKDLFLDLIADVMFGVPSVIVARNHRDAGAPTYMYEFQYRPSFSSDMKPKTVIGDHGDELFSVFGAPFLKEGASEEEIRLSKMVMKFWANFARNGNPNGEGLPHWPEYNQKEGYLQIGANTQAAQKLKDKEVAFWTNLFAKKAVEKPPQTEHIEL
TEST: Activity at human recombinant CES1 expressed in baculovirus-infected Spodoptera frugiperda Sf21 cells assessed as substrate hydrolysis by fluorescence assay
pKm vs 4: at or above is Yes, below is No.

COMPOUND	LABEL
CC(=O)Oc1ccc2c3c1O[C@H]1[C@@H](OC(C)=O)C=C[C@H]4[C@@H](C2)N(C)CC[C@@]341 [DIACETYLMORPHINE]	No
CCc1c2c(nc3ccc(OC(=O)N4CCC(N5CCCCC5)CC4)cc13)-c1cc3c(c(=O)n1C2)COC(=O)[C@]3(O)CC [IRINOTECAN]	No
CC(C)C[C@H](N)C(=O)OC[C@H]1O[C@@H](n2cc(F)c(=O)[nH]c2=O)C[C@@H]1O	No
COc1cc(C(=O)OCCCN2CCCN(CCCOC(=O)c3cc(OC)c(OC)c(OC)c3)CC2)cc(OC)c1OC [DILAZEP]	No
CC(=O)Oc1ccc2c(C)cc(=O)oc2c1	No
CCOC(=O)[C@H](CCc1ccccc1)N[C@H]1CCc2ccccc2N(CC(=O)O)C1=O [BENAZEPRIL]	No
CC1(C)[C@H](C=C(Cl)Cl)[C@@H]1C(=O)OCc1cccc(Oc2ccccc2)c1	Yes
CCCCCOC(=O)Nc1nc(=O)n([C@@H]2O[C@H](C)[C@@H](O)[C@H]2O)cc1F [CAPECITABINE]	No
COc1ccc2cc([C@H](C#N)OC(=O)[C@@H]3[C@@H](C=C(Cl)Cl)C3(C)C)ccc2c1	Yes
CC(C)[C@H](N)C(=O)OC[C@H]1O[C@@H](n2cc(F)c(=O)[nH]c2=O)C[C@@H]1O	No
CC1(C)[C@H](C=C(Cl)Cl)[C@H]1C(=O)OCc1cccc(Oc2ccccc2)c1 (stereo in doubt)	Yes
CC(C)=C[C@H]1[C@H](C(=O)OCc2coc(Cc3ccccc3)c2)C1(C)C (relative stereo)	Yes
CCOC(=O)C1(c2ccccc2)CCN(C)CC1 [MEPERIDINE]	No
